Entries and their protein stability index values follow.
B1: EPB41L3 (parent)
chain: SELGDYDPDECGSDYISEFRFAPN

variants of: B1; assay: protein stability index of a GFP-peptide fusion (GPS, HEK-293T) (PSI 1-6); higher = more stable; settings: c terminus: a fixed tail appended;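 further: lentivirally expressed fusions sorted by FACS into six bins by GFP to DsRed ratio, PSI derived from sequencing read proportions per bin multiplied by bin number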
// return a plain number; no unit text

Known protein stability index results, listed for orientation:
MUTANT: Y6F
MEASURE: protein stability index
EXPERIMENTAL VALUE: 2.01

MUTANT: C11M
MEASURE: protein stability index
EXPERIMENTAL VALUE: 2

Measured protein stability index, G12D : 3.19

Measured protein stability index, Y15T : 2.7

Measured protein stability index, R20D : 4.72

Measured protein stability index, R20V : 4.4

Measured protein stability index, D9N : 1.55

Measured protein stability index, A22N : 3.46
